System: A549 cell line
Experiment: In vitro cytotoxic activity, MTT method, A549
Settings: A549, Conc. 25 µMol
Experimental: Cell lines: The in vitro human breast cancerous cell line (MCF7), lung cancerous cell lines (A549) and normal cell lines were purchased from Serum and Vaccine formulation in Cairo-Egypt. In vitro cytotoxic activity of all synthesized compounds against two human breast cell line (MCF7) and lung cell lines (A549) was evaluated according to the MTT method. […] Finally read the optical density at 560 nm and subtract background at 620 nm. […]
attribute measured: Viability % (%)
Your answer should be a plain number; it is taken to be in %.

Examples with their reported Viability % follow.
[
  {
    "compound": "CCOC(=O)CSc1nc(C)c2c(c1C#N)CC(C)(O)C(C(C)=O)C2c1ccc(N(C)C)cc1 (stereo not shown)",
    "Viability % / %": 2.722
  },
  {
    "compound": "CC(=O)C1C(c2ccc(N(C)C)cc2)c2c(C)nc3sc(C(=O)Nc4ccccc4)c(N)c3c2CC1(C)O (stereo not shown)",
    "Viability % / %": 2.051
  },
  {
    "compound": "CC(=O)c1ccc(NC(=O)c2sc3nc(C)c4c(c3c2N)CC(C)(O)C(C(C)=O)C4c2ccc(N(C)C)cc2)cc1 (stereo not shown)",
    "Viability % / %": 3.353
  }
]

Fill in the blank: the reported Viability % of CC(=O)C1C(c2ccc(N(C)C)cc2)c2c(C)nc(SCC(=O)Nc3ccc(C)cc3)c(C#N)c2CC1(C)O (stereo not shown) is ____. 3.59

###

Assay: Cytotoxicity on normal cell line WI-38
Type: cell-based, human
Conditions: human, % viability
attribute measured: viability at 1.55 µM (%)
Report the figure in % without appending any unit label.

Entry under review: COc1cccc2c1C(=O)c1c(O)c3c(c(O)c1C2=O)C[C@@](O)(C(=O)CO)C[C@@H]3O[C@H]1C[C@H](N)[C@H](O)[C@H](C)O1 [Doxorubicin, reference compound] . Reported viability at 1.55 µM? 84.1

###

Test system: A549 cell line
Experiment: In vitro cytotoxic activity, MTT method, A549
Conditions: A549, Conc. 0.0487 µMol
attribute measured: Viability % (%)
Express it in %; write the number only.

// below: answered compounds
[
  {
    "compound": "CCOC(=O)CSc1nc(C)c2c(c1C#N)CC(C)(O)C(C(C)=O)C2c1ccc(N(C)C)cc1 (stereo not drawn) [Compound 4]",
    "study system": "A549 cell line",
    "unit abbrev": "%",
    "Viability %": 98.2
  },
  {
    "compound": "CC(=O)C1C(c2ccc(N(C)C)cc2)c2c(C)[nH]c(=S)c(C#N)c2CC1(C)O (stereo not drawn) [Compound 1]",
    "study system": "A549 cell line",
    "unit abbrev": "%",
    "Viability %": 99
  },
  {
    "compound": "CC(=O)C1C(c2ccc(N(C)C)cc2)c2c(C)nc(SCC(N)=O)c(C#N)c2CC1(C)O (stereo not drawn) [Compound 5]",
    "study system": "A549 cell line",
    "unit abbrev": "%",
    "Viability %": 100
  },
  {
    "compound": "CSc1nc(C)c2c(c1C#N)CC(C)(O)C(C(C)=O)C2c1ccc(N(C)C)cc1 (stereo not drawn) [Compound 3]",
    "study system": "A549 cell line",
    "unit abbrev": "%",
    "Viability %": 99.700
  },
  {
    "compound": "COc1cccc2c1C(=O)c1c(O)c3c(c(O)c1C2=O)C[C@@](O)(C(=O)CO)C[C@@H]3O[C@H]1C[C@H](N)[C@H](O)[C@H](C)O1 [Douxrbicin]",
    "study system": "A549 cell line",
    "unit abbrev": "%",
    "Viability %": 80
  }
]

Entry under review: CC(=O)C1C(c2ccc(N(C)C)cc2)c2c(C)nc(SCC#N)c(C#N)c2CC1(C)O (stereo not drawn) [Compound 6] . Reported Viability %? 99.7

###

List of Toxicity % values.
System: MCF7 cell line
Experiment: In vitro cytotoxic activity, MTT method, MCF7
Format: cell-based, human
Conditions: MCF7, 25 µMol
Give just the number in %; leave the unit off.

Worked cases, answers included:
[
  {
    "molecule": "CC(=O)C1C(c2ccc(N(C)C)cc2)c2c(C)nc(SCC(N)=O)c(C#N)c2CC1(C)O (stereo not shown)",
    "observed result": 97.22
  },
  {
    "molecule": "CSc1nc(C)c2c(c1C#N)CC(C)(O)C(C(C)=O)C2c1ccc(N(C)C)cc1 (stereo not shown)",
    "observed result": 97.06
  },
  {
    "molecule": "CC(=O)C1C(c2ccc(N(C)C)cc2)c2c(C)nc(SCC#N)c(C#N)c2CC1(C)O (stereo not shown)",
    "observed result": 97.34
  },
  {
    "molecule": "CC(=O)C1C(c2ccc(N(C)C)cc2)c2c(C)nc(SCC(=O)Nc3ccccc3)c(C#N)c2CC1(C)O (stereo not shown)",
    "observed result": 97.39
  },
  {
    "molecule": "COc1cccc2c1C(=O)c1c(O)c3c(c(O)c1C2=O)C[C@@](O)(C(=O)CO)C[C@@H]3O[C@H]1C[C@H](N)[C@H](O)[C@H](C)O1 [Doxorubicin, reference compound]",
    "observed result": 98.45
  },
  {
    "molecule": "CC(=O)C1C(c2ccc(N(C)C)cc2)c2c(C)[nH]c(=S)c(C#N)c2CC1(C)O (stereo not shown)",
    "observed result": 97.3
  }
]

Now for a further molecule.
Any idea what Toxicity % came out for CC(=O)C1C(c2ccc(N(C)C)cc2)c2c(C)nc(SCC(=O)Nc3ccc(C)cc3)c(C#N)c2CC1(C)O (stereo not shown) on MCF7 cell line? 96.57

###

Each entry below lists one item and its recorded Toxicity % value.
Tested on: MCF7 cell line
Test: In vitro cytotoxic activity, MTT method, MCF7
Format: cell-based, human
Settings: MCF7, 25 µMol
Give the quantity in %, number only.

The examples below pair each entry with its known result.
[
  {
    "molecule": "CCOC(=O)CSc1nc(C)c2c(c1C#N)CC(C)(O)C(C(C)=O)C2c1ccc(N(C)C)cc1 (stereo not drawn) [Compound 4]",
    "study system": "MCF7 cell line",
    "observed result": 96.81
  },
  {
    "molecule": "CC(=O)C1C(c2ccc(N(C)C)cc2)c2c(C)nc(SCC(=O)Nc3ccc(Cl)cc3)c(C#N)c2CC1(C)O (stereo not drawn) [Compound 7c]",
    "study system": "MCF7 cell line",
    "observed result": 96.77
  }
]

# context switch: different molecule, same Toxicity %
Returns the measured Toxicity % for the input molecule. Input: CC(=O)c1ccc(NC(=O)CSc2nc(C)c3c(c2C#N)CC(C)(O)C(C(C)=O)C3c2ccc(N(C)C)cc2)cc1 (stereo not drawn) [Compound 7d] 96.73

###

Assay: Cytotoxicity on normal cell line WI-38
Assay type: cell-based, human
Details: human, WI-38 cells (normal fetal lung fibroblasts), WI38
attribute measured: viability at 3.125 µM (%)
The reply should be a number in %, with the unit left off.

Could you tell me which viability at 3.125 µM is on file for CC(=O)c1ccc(NC(=O)c2sc3nc(C)c4c(c3c2N)CC(C)(O)C(C(C)=O)C4c2ccc(N(C)C)cc2)cc1 (stereo not shown) [Compound 8d] ? 86.3

###

Test system: A549 cell line
Test: In vitro cytotoxic activity, MTT method, A549
Conditions: A549, Conc. 3.125 µMol
Description: Cell lines: The in vitro human breast cancerous cell line (MCF7), lung cancerous cell lines (A549) and normal cell lines were purchased from Serum and Vaccine formulation in Cairo-Egypt. In vitro cytotoxic activity of all synthesized compounds against two human breast cell line (MCF7) and lung cell lines (A549) was evaluated according to the MTT method. […] Finally read the optical density at 560 nm and subtract background at 620 nm. […]
Readings of Viability % for the listed compounds
// return numeric value only (unit: %, not printed)

Recorded Viability %, per entry:
[
  {
    "compound": "CC(=O)C1C(c2ccc(N(C)C)cc2)c2c(C)nc(SCC(N)=O)c(C#N)c2CC1(C)O (centres unmarked)",
    "unit abbrev": "%",
    "Viability %": 30.34
  },
  {
    "compound": "CC(=O)C1C(c2ccc(N(C)C)cc2)c2c(C)[nH]c(=S)c(C#N)c2CC1(C)O (centres unmarked)",
    "unit abbrev": "%",
    "Viability %": 40.24
  },
  {
    "compound": "CC(=O)C1C(c2ccc(N(C)C)cc2)c2c(C)nc(SCC(=O)Nc3ccc(Cl)cc3)c(C#N)c2CC1(C)O (centres unmarked)",
    "unit abbrev": "%",
    "Viability %": 22.8
  },
  {
    "compound": "CC(=O)C1C(c2ccc(N(C)C)cc2)c2c(C)nc3sc(C(=O)Nc4ccc(C)cc4)c(N)c3c2CC1(C)O (centres unmarked)",
    "unit abbrev": "%",
    "Viability %": 29.31
  },
  {
    "compound": "CC(=O)C1C(c2ccc(N(C)C)cc2)c2c(C)nc(SCC#N)c(C#N)c2CC1(C)O (centres unmarked)",
    "unit abbrev": "%",
    "Viability %": 56.17
  }
]

Requested read-out: Viability %. Entry: CC(=O)c1ccc(NC(=O)CSc2nc(C)c3c(c2C#N)CC(C)(O)C(C(C)=O)C3c2ccc(N(C)C)cc2)cc1 (centres unmarked) 22.92

Queued: CC(=O)c1ccc(NC(=O)c2sc3nc(C)c4c(c3c2N)CC(C)(O)C(C(C)=O)C4c2ccc(N(C)C)cc2)cc1 (centres unmarked) 17.32
